protocol-text: Stability in buffer solution on storage (HPLC)
Format: physicochemical
condition-label: 50 mm tris-hcl, pH 8, 50 mM Tris-HCl, pH: 8; about 0.1%; stored at 50°C for 476 hours; read-out: Stability (100% = concentration before storage) pH: 8
attribute-measured: remaining at 476 h (%)

{"compound": "O=C1O[C@H]([C@@H](O)CO)C(O)=C1OP(=O)([O-])[O-].[Zn+2] [L-ascorbic acid 2-phosphate zinc salt]", "attribute-measured": "remaining at 476 h", "measurement": 93}

###

protocol-text: Stability in buffer solution on storage (HPLC)
Assay type: physicochemical
condition-label: 50 mm acetic acid-naoh, pH 5, 50 mM acetic acid-NaOH, pH: 5; about 0.1%; stored at 50°C for 476 hours; read-out: Stability (100% = concentration before storage) pH: 5
attribute-measured: remaining at 476 h (%)

{"compound": "O=C1O[C@H]([C@@H](O)CO)C(O)=C1OP(=O)([O-])[O-].[Zn+2] [L-ascorbic acid 2-phosphate zinc salt]", "measurement": 91}
